Target: E3 ubiquitin-protein ligase CBL-B (Homo sapiens)
Experiment: Inhibition of N-terminal His-tagged human Cbl-b (40 to 426 residues) expressed in Escherichia coli by measured for 90 mins by HTRF method
What pIC50 was measured for each of the following?
API: returns pIC50 as number; meaning -log10 of concentration in mol/L.

What pIC50 value was documented for this compound, Cn1cnnc1[C@]1(c2cccc(NC(=O)c3cc(CN4CCC[C@H](C(F)F)C4)cn4ccnc34)c2)C[C@H](CC#N)C1 ? 9.00

For the compound shown here, Cn1cnnc1[C@]1(c2cccc(-c3cnc4c(C(F)(F)F)cc(CN5CC6CC(C)(C6)C5)cn4c3=O)c2)C[C@H](C)C1 , give the reported pIC50. 7.60

Need pIC50 of Cc1cc(CNC2(C)CCC2)cc2c(=O)c(-c3cccc([C@]4(c5nncn5C)C[C@@H](C)C4)c3)coc12 , thanks. 7.89

# pIC50 lookup, item CC(c1cc(C(=O)Nc2cccc([C@]3(c4nncn4C)C[C@@H](CC#N)C3)c2)nc2cc[nH]c12)N1CCC[C@H](C)C1 (some centres undefined) 8.40

====

Molecular target: E3 ubiquitin-protein ligase CBL-B (Homo sapiens, UniProt Q13191)
Sequence (Q13191 whole entry): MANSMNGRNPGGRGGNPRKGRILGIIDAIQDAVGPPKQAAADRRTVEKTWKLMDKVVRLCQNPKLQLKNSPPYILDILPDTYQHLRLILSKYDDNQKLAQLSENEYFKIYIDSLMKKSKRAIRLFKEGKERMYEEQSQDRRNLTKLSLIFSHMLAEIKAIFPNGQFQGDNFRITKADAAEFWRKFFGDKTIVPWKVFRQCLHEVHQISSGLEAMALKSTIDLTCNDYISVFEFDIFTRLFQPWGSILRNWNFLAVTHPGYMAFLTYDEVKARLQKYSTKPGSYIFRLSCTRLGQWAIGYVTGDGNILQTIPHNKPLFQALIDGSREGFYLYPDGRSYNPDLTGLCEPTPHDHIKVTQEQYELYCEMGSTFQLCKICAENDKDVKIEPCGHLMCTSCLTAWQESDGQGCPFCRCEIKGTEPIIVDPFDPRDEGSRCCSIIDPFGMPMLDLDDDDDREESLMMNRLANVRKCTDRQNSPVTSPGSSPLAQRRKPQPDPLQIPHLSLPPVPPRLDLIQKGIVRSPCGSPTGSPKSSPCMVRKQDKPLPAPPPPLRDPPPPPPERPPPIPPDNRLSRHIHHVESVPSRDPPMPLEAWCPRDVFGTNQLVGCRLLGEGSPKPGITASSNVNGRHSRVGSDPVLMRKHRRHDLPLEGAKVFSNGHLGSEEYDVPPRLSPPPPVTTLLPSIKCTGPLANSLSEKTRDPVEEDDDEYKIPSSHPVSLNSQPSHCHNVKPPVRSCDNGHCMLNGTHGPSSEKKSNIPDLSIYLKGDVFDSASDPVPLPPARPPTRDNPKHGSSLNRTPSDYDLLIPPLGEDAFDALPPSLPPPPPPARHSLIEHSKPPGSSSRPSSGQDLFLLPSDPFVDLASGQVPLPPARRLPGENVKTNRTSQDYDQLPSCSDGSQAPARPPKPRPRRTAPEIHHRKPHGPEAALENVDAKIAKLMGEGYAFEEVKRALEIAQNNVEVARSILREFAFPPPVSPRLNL
Experiment: Inhibition of recombinant Cbl-b (unknown origin) ubiquitination incubated for 1 hr by TR-FRET assay
Where a SMILES comes first, the peptide text is derived from it. [ ]: non-standard residue; d: D form. The star is where a group is joined. pY = N[C@@H](Cc1ccc(OP(=O)(O)O)cc1)C(=O)O; Myristoyl = CCCCCCCCCCCCCC(=O)*
Readout kind: IC50

What does the record list as IC50 for Cn1cnnc1[C@]1(c2cccc(-n3cc4c(C(F)(F)F)cc(CN5CCC6(CC6)C5)cn4c3=O)c2)C[C@H](C)C1 ? < 0.1 µM

Param item = CCCCCCCCCCCCCC(=O)N[C@@H](CC(=O)O)C(=O)NCC(=O)N[C@@H](Cc1ccc(OP(=O)(O)O)cc1)C(=O)N[C@@H](CCSC)C(=O)N1CCC[C@H]1C(=O)O (Myristoyl-DG[pY]MP-OH) ; retrieve measured IC50. 30 µM

Can you look up the measured IC50 of C[C@H]1CCCN(Cc2cc3c(c(C(F)(F)F)c2)CN(c2cccc([C@]4(c5nncn5C)C[C@@H](C)C4)c2)C3=O)C1 for me? < 0.005 µM

====

Molecular target: E3 ubiquitin-protein ligase CBL-B (Homo sapiens, UniProt Q13191)
Experiment: Inhibition of Cbl-b (unknown origin) by TR-FRET assay
Readout kind: IC50 (nM)
Write down the numeric answer in nM and omit the unit.

Using the record for Cc1cc(C(=O)Nc2cccc(C3(Cc4nncn4C)COC3)c2)nc(C2CC2)n1 , report its IC50. 20

====

Give log10 IC50 for every item shown.
Molecular target: E3 ubiquitin-protein ligase CBL-B (Homo sapiens, UniProt Q13191)
Test: Inhibition of Cbl-b (unknown origin)
Kindly note that the scale is log10 and the underlying IC50 is in nM.

Hello, I am looking for reported log10 IC50 with E3 ubiquitin-protein ligase CBL-B (Homo sapiens, UniProt Q13191) for Cn1cnnc1[C@]1(c2cccc(-c3cnc4c(C(F)(F)F)cc(CN5CC6CC(C)(C6)C5)cn4c3=O)c2)C[C@H](C)C1 . Could you help? 1.30

Lab note: need log10 IC50 with E3 ubiquitin-protein ligase CBL-B (Homo sapiens, UniProt Q13191) for entry CO[C@@]1(C(=O)N/C=C/c2ccc(O)cc2)O[C@](O)(C(=O)N/C=C/c2ccc(O)cc2)[C@@H](c2ccc(O)c(O)c2)[C@@H]1c1ccc(O)c(O)c1 , please look it up. 4.04

Give log10 IC50 (E3 ubiquitin-protein ligase CBL-B (Homo sapiens, UniProt Q13191)) of the following compound: O=C(N/C=C/c1ccc(O)cc1)c1c(-c2ccc(O)c(O)c2)c(-c2ccc(O)c(O)c2)c(C(=O)N/C=C/c2ccc(O)cc2)n1CCc1ccc(O)cc1 3.81

// lookup log10 IC50 | system=E3 ubiquitin-protein ligase CBL-B (Homo sapiens, UniProt Q13191) | key= Cc1cc(CNC2(C)CCC2)cc2c(=O)c(-c3cccc([C@]4(c5nncn5C)C[C@@H](C)C4)c3)coc12 1.00

Could you share what log10 IC50 was measured for CC(c1cc(C(=O)Nc2cccc([C@]3(c4nncn4C)C[C@@H](CC#N)C3)c2)nc2cc[nH]c12)N1CCC[C@H](C)C1 (stereo not given in full) , tested on E3 ubiquitin-protein ligase CBL-B (Homo sapiens, UniProt Q13191)? 4.04

Form field: log10 IC50 recorded for Cn1cnnc1[C@]1(c2cccc(NC(=O)c3cc(CN4CCC[C@H](C(F)F)C4)cn4ccnc34)c2)C[C@H](CC#N)C1 with E3 ubiquitin-protein ligase CBL-B (Homo sapiens, UniProt Q13191) (enter value) 0.70
